Consider the following compounds; for each one, report its pKi.
- Assay system: Human ROCK1 protein (amino acids 1–477) (Homo sapiens, UniProt Q13464)
- Construct: purchased Carna Biosciences 01-109
- Sequence (Q13464 1-477): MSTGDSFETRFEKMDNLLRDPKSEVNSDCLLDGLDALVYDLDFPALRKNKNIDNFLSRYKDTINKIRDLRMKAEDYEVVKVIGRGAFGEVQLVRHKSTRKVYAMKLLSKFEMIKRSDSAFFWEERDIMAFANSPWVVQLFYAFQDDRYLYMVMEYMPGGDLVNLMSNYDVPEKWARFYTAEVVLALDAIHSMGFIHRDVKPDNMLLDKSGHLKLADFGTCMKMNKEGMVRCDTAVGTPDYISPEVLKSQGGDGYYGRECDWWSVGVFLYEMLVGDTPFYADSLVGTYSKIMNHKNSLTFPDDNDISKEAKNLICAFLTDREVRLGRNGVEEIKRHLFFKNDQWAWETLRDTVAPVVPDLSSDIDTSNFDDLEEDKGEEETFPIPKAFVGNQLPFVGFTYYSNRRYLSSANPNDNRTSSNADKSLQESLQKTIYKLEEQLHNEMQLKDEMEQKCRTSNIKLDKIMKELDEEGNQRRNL
- Run description: ROCK1 HTRF KinEASE-STK S2 biochemical activity assay
- Assay conditions: average +/- standard deviation of three measurements; 3 μM ATP
Entry type: numeric. Quantity: pKi, the -log10 of concentration in molar units.

In plain terms, CC(Cc1ccc(F)cc1F)NC(=O)c1ccc(-c2cn[nH]c2)cc1 (racemic) has a documented pKi of 7.12

The reported pKi of the compound CC(NC(=O)c1ccc(-c2cn[nH]c2)cc1)C1CC1c1ccccc1 (mixture of isomers) was 7.06

###

Would you kindly list Sinf for each of these compounds?
- Assay system: Human ROCK1 protein (amino acids 1–477) (Homo sapiens, UniProt Q13464)
- Construct: purchased Carna Biosciences 01-109
- Run description: ROCK1 HTRF KinEASE-STK S2 biochemical activity assay
- Assay conditions: 2021-01-17 ROCK1 HTRF (n=1) 665/620 Activity [%]; curve fit parameter
Number in %, nothing else.

The compound listed as `CSc1cccc(F)c1CNC(=O)c1ccc(-c2cn[nH]c2)cc1` has a reported Sinf of -99.2397

Sinf measured on `COCc1cccc(CC(=O)Nc2ccc(-c3cn[nH]c3)cc2)c1` = -100.2

Documented Sinf of CC(NC(=O)c1ccc(-c2cn[nH]c2)cc1)C1CC1c1ccccc1 (mixture of isomers) : -96.8224

The recorded Sinf for entry CC(CNC(=O)c1ccc(-c2cn[nH]c2)cc1)N1CCc2ccccc21 (stereo not drawn) equals -98.9577

response.value for CC(Cc1ccc(F)cc1F)NC(=O)c1ccc(-c2cn[nH]c2)cc1 (racemic) (field: Sinf) = -99.1673

Sure, the documented Sinf for `O=C(NCC1(Cc2ccccc2)CC1)c1ccc(-c2cn[nH]c2)cc1` is -98.9033

###

- Assay system: Human ROCK1 protein (amino acids 1–477) (Homo sapiens, UniProt Q13464)
- Construct: purchased Carna Biosciences 01-109
- Run description: ROCK1 HTRF KinEASE-STK S2 biochemical activity assay
- Assay conditions: 2021-01-18 ROCK1 HTRF (n=2); curve fit parameter
Parameter measured: nHill
Lab note: record the figure alone, no unit after it.

// recorded nHill for CC(NC(=O)c1ccc(-c2cn[nH]c2)cc1)C1CC1c1ccccc1 (mixture of isomers) : 1.2951

# nHill of `O=C(NCC1(Cc2ccccc2)CC1)c1ccc(-c2cn[nH]c2)cc1` = 1.644

Notebook: `COCc1cccc(CC(=O)Nc2ccc(-c3cn[nH]c3)cc2)c1` , nHill read as 1.139

Lab note: `CSc1cccc(F)c1CNC(=O)c1ccc(-c2cn[nH]c2)cc1` gave nHill of 1.136

Briefly, nHill measured for CC(CNC(=O)c1ccc(-c2cn[nH]c2)cc1)N1CCc2ccccc21 (stereo not drawn) : 0.9788

Entry under test: CC(Cc1ccc(F)cc1F)NC(=O)c1ccc(-c2cn[nH]c2)cc1 (racemic) . Its nHill was 1.01
